# test-target: orexin-1 (Homo sapiens (Human))
# Sequence (O43613 whole entry): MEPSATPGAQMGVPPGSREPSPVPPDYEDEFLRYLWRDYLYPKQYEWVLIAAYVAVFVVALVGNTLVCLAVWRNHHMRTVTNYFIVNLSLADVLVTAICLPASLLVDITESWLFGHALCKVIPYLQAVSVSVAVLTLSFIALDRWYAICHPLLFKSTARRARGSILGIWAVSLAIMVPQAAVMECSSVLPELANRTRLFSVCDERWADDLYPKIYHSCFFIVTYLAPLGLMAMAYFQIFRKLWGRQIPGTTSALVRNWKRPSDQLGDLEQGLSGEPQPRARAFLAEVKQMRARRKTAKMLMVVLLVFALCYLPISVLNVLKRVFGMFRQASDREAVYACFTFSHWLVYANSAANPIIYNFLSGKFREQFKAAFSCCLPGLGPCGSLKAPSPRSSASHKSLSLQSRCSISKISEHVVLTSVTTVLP
# assay-text: Intracellular calcium measurement (FLIPR), CHO cells expressing human orexin-1 receptor, 3 nM orexin-A
# Format: cell-based
# study-conditions: CHO cells expressing human orexin-1 receptor, FLIPR, 3 nM orexin-A; geometric mean if determined several times; read-out: IC50 OX1
log10(IC50) values, listed per item
measure: log10(IC50) (log10 of the value in nM)

entry-smiles	result-number
Cc1ccc(-n2nccn2)c(C(=O)N2CCC[C@H]2c2noc(-c3cccc(Cl)c3C)n2)c1	1.62
O=C(c1cc(F)ccc1-n1nccn1)N1CCC[C@H]1c1nc(-c2ccccc2OC(F)(F)F)no1	2.24
O=C(c1cccc(F)c1-c1ccn[nH]1)N1CCC[C@H]1c1nc(-c2ccccc2OC(F)F)no1	1.72
COc1cc(C(=O)N2CCC[C@H]2c2nnc(-c3ccccc3OC)[nH]2)c(-n2nccn2)cc1C	1.92
Cc1ccc(-c2ccccn2)c(C(=O)N2CCC[C@H]2c2nc(-c3ccccc3C(F)(F)F)no2)c1	2.49
O=C(c1cccc(F)c1-c1ccn[nH]1)N1CCC[C@H]1c1nc(-c2ccccc2OC(F)(F)F)no1	1.43
COc1cc(C(=O)N2CCC[C@H]2c2nc(-c3cccc(F)c3OC)no2)c(-n2nccn2)cc1F	2.61

====

Catalogue of compounds with associated pIC50
# test-target: orexin-1 (Homo sapiens (Human))
# assay-text: Intracellular calcium measurement (FLIPR), CHO cells expressing human orexin-1 receptor, 3 nM orexin-A
# Format: cell-based
# study-conditions: CHO cells expressing human orexin-1 receptor, FLIPR, 3 nM orexin-A; geometric mean if determined several times; read-out: IC50 OX1
pIC50: −log10 of the molar value.

entry-smiles	pIC50
Cc1ccc(-n2nccn2)c(C(=O)N2CCC[C@H]2c2noc(-c3ccccc3OC(F)(F)F)n2)c1	7.89
CCOc1c(F)cccc1-c1nc([C@@H]2CCCN2C(=O)c2ccc(Cl)cc2-n2nccn2)no1	7.80
COc1cccc(-c2nc([C@@H]3CCCN3C(=O)c3ccc(Cl)cc3-n3nccn3)no2)c1C	6.77
CCOc1ccccc1-c1noc([C@@H]2CCCN2C(=O)c2cc(C)ccc2-n2nccn2)n1	7.66

====

# test-target: orexin-1 (Homo sapiens (Human))
# assay-text: Intracellular calcium measurement (FLIPR), CHO cells expressing human orexin-1 receptor, 3 nM orexin-A
# Format: cell-based
# study-conditions: CHO cells expressing human orexin-1 receptor, FLIPR, 3 nM orexin-A; geometric mean if determined several times; read-out: IC50 OX1
pIC50: −log10 of the molar value.
pIC50 of 7 or higher: criterion met. Under 7: criterion not met.

entry-smiles	class-name
CCOc1ccccc1-c1noc([C@@H]2CCCN2C(=O)c2cccc(C)c2-n2nccn2)n1	criterion not met
CCOc1ncccc1-c1noc([C@@H]2CCCN2C(=O)c2cc(C)c(C)cc2-n2nccn2)n1	criterion met
CCOc1ncccc1-c1nc([C@@H]2CCCN2C(=O)c2cc(OC)c(Cl)cc2-n2nccn2)no1	criterion met
COc1cc(C(=O)N2CCC[C@H]2c2nc(-c3ccccc3OC(F)(F)F)no2)c(-n2nccn2)cc1F	criterion not met
COc1c(F)cccc1-c1nc([C@@H]2CCCN2C(=O)c2ccccc2-n2nccn2)no1	criterion not met
Cc1ccc(C)c(-c2nc([C@@H]3CCCN3C(=O)c3ccc(C)cc3-n3nccn3)no2)c1	criterion met
Cc1ccc(-n2nccn2)c(C(=O)N2CCC[C@H]2c2cnc(-c3ccccc3)[nH]2)c1	criterion not met
COc1ccc(C)c(-c2nc([C@@H]3CCCN3C(=O)c3ccc(Cl)cc3-n3nccn3)no2)c1	criterion not met
Cc1ccc(-n2nccn2)c(C(=O)N2CCC[C@@]2(C)c2nnc(-c3ccccc3OC(F)(F)F)[nH]2)c1	criterion met
Cc1ccc(-n2nccn2)c(C(=O)N2CCC[C@H]2c2nc(-c3ccccc3OC(F)(F)F)no2)c1	criterion met
COc1ccccc1-c1cnc([C@@H]2CCCN2C(=O)c2cc(C)ccc2-n2nccn2)[nH]1	criterion met
Cc1c(Cl)cccc1-c1noc([C@@H]2CCCN2C(=O)c2cc(Cl)ccc2-n2nccn2)n1	criterion not met
